- TARGET_OR_SYSTEM: Protein cereblon/Androgen receptor (Homo sapiens, UniProt P10275+Q96SW2)
- Sequence (P10275 whole entry, looked up): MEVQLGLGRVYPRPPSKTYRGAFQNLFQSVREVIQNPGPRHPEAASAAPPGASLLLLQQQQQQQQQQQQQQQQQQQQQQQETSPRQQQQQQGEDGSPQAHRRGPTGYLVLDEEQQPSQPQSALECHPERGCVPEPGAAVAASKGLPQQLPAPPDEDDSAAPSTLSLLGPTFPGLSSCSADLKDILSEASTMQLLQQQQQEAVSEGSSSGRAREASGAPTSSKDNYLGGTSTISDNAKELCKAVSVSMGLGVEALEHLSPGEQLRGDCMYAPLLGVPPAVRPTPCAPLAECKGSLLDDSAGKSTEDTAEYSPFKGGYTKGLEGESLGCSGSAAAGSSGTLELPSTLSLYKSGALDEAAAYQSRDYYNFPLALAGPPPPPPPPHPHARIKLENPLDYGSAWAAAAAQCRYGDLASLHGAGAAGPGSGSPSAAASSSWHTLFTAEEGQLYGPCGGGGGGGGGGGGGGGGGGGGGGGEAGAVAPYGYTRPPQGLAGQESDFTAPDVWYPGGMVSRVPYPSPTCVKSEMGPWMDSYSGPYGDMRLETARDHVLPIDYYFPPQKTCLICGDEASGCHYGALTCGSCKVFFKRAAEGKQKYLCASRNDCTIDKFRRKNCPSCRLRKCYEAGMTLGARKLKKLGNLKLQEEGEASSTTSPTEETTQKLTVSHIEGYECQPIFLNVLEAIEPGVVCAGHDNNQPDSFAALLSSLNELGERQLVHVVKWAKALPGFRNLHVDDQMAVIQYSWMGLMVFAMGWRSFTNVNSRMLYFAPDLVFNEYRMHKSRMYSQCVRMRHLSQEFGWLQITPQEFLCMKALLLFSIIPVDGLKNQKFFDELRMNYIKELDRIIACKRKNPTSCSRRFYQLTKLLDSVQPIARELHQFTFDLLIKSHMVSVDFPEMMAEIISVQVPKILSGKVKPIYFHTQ
- Sequence (Q96SW2 whole entry, looked up): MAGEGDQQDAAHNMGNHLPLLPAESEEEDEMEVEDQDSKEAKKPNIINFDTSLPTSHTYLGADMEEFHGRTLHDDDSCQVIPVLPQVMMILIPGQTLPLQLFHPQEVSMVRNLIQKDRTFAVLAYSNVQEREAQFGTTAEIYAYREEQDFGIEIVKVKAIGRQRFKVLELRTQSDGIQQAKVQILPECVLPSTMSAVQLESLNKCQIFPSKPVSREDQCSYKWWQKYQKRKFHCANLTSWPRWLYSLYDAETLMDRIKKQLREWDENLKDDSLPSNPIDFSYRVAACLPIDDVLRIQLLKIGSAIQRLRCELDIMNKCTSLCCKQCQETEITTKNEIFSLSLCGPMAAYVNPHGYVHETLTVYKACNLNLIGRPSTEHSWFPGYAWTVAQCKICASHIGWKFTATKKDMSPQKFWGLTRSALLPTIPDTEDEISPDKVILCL
- PROTOCOL_NOTES: PROTAC activity at CRBN/AR in human VCaP cells assessed as induction of AR degradation at 1 uM incubated for 24 hrs by Western blot analysis relative to control
- Type: cell-based
MEASURE_NAME: Activity (%)
Give just the number in %; leave the unit off.

Measured Activity, CC(C)(c1ccc(OCC2CCN(C3CN(C(=O)CCNc4ccc5c(c4)C(=O)N(C4CCC(=O)NC4=O)C5=O)C3)CC2)cc1)c1ccc(OC[C@H](O)CCl)cc1 (stereo partly specified) : 32.7

Measured Activity, CC(C)(c1ccc(OCC2CCN(C(=O)CCCCNc3ccc4c(c3)C(=O)N(C3CCC(=O)NC3=O)C4=O)CC2)cc1)c1ccc(OC[C@H](O)CCl)cc1 (stereo partly specified) : 8.5

Measured Activity, CC(C)(c1ccc(OCC2CCN(C(=O)CCCC#Cc3ccc4c(c3)C(=O)N(C3CCC(=O)NC3=O)C4=O)CC2)cc1)c1ccc(OC[C@H](O)CCl)cc1 (stereo partly specified) : 8.4

Measured Activity, CC(C)(c1ccc(OCC2CCN(C3CN(C(=O)CCCCNc4ccc5c(c4)C(=O)N(C4CCC(=O)NC4=O)C5=O)C3)CC2)cc1)c1ccc(OC[C@H](O)CCl)cc1 (stereo partly specified) : 17.7

Measured Activity, CC(C)(c1ccc(OCC2CCN(C(=O)CCCCCOc3ccc4c(c3)C(=O)N(C3CCC(=O)NC3=O)C4=O)CC2)cc1)c1ccc(OC[C@H](O)CCl)cc1 (stereo partly specified) : 5.9

----------
- Tested on: Protein cereblon/Androgen receptor (Homo sapiens), P10275+Q96SW2 [UNDEFINED MUTATION]
- PROTOCOL_NOTES: PROTAC activity at CRBN/Androgen receptor splice variant 7 in human 22Rv1 cells assessed as induction of AR-V7 degradation at 0.01 uM incubated for 24 hrs by Western blot analysis relative to control
- Assay type: cell-based
MEASURE_NAME: Activity (%)
Give just the number in %; leave the unit off.

Measured Activity, COc1ccc(C(C)(C)c2cc(Cl)c(OCC3CCN(C(=O)CCCCCNc4ccc5c(c4)C(=O)N(C4CCC(=O)NC4=O)C5=O)CC3)c(C#N)c2)cc1 (stereo not drawn) : 65.7

Measured Activity, COc1ccc(C(C)(C)c2ccc(OCC3CCN(C(=O)CCCCCNc4ccc5c(c4)C(=O)N(C4CCC(=O)NC4=O)C5=O)CC3)cc2)cc1 (stereo not drawn) : 6.7

Measured Activity, CC(C)(c1ccc(OCc2cncnc2)cc1)c1cc(Cl)c(OCC2CCN(C(=O)CCCCCNc3ccc4c(c3)C(=O)N(C3CCC(=O)NC3=O)C4=O)CC2)c(C#N)c1 (stereo not drawn) : 75.2

----------
- TARGET_OR_SYSTEM: Protein cereblon/Androgen receptor (Homo sapiens, UniProt P10275+Q96SW2)
- PROTOCOL_NOTES: PROTAC activity at CRBN/AR in human VCaP cells assessed as induction of AR degradation at 5 uM incubated for 24 hrs by Western blot analysis relative to control
- Format: cell-based
Hi there, I'd appreciate the recorded Activity for every entry that follows.

Measured Activity, CC(C)(c1ccc(OCC2CCN(C(=O)CCCCCNc3ccc4c(c3)C(=O)N(C3CCC(=O)NC3=O)C4=O)CC2)cc1)c1ccc(OC[C@H](O)CCl)cc1 (stereo partly specified) : 50.8%

Measured Activity, CC(C)(c1ccc(OCC2CCN(C(=O)CCCCOc3ccc4c(c3)C(=O)N(C3CCC(=O)NC3=O)C4=O)CC2)cc1)c1ccc(OC[C@H](O)CCl)cc1 (stereo partly specified) : < 5%

Measured Activity, CC(C)(c1ccc(OCC2CCN(C(=O)CCCCCOc3ccc4c(c3)C(=O)N(C3CCC(=O)NC3=O)C4=O)CC2)cc1)c1ccc(OC[C@H](O)CCl)cc1 (stereo partly specified) : 20%

Measured Activity, CC(C)(c1ccc(OCC2CCN(C(=O)CCCC#Cc3ccc4c(c3)C(=O)N(C3CCC(=O)NC3=O)C4=O)CC2)cc1)c1ccc(OC[C@H](O)CCl)cc1 (stereo partly specified) : < 5%

Measured Activity, CC(C)(c1ccc(OCC2CCN(C(=O)CCCCCCCNc3cccc4c3C(=O)N(C3CCC(=O)NC3=O)C4=O)CC2)cc1)c1ccc(OC[C@H](O)CCl)cc1 (stereo partly specified) : < 5%

Measured Activity, CC(C)(c1ccc(OCC2CCN(C(=O)CCCCCCNc3cccc4c3C(=O)N(C3CCC(=O)NC3=O)C4=O)CC2)cc1)c1ccc(OC[C@H](O)CCl)cc1 (stereo partly specified) : < 5%

----------
Hi there, I'd appreciate the recorded Activity for every entry that follows.
- TARGET_OR_SYSTEM: Protein cereblon/Eukaryotic peptide chain release factor GTP-binding subunit ERF3A (Homo sapiens, UniProt Q96SW2+P15170)
- Sequence (P15170 whole entry, looked up, one chain of several): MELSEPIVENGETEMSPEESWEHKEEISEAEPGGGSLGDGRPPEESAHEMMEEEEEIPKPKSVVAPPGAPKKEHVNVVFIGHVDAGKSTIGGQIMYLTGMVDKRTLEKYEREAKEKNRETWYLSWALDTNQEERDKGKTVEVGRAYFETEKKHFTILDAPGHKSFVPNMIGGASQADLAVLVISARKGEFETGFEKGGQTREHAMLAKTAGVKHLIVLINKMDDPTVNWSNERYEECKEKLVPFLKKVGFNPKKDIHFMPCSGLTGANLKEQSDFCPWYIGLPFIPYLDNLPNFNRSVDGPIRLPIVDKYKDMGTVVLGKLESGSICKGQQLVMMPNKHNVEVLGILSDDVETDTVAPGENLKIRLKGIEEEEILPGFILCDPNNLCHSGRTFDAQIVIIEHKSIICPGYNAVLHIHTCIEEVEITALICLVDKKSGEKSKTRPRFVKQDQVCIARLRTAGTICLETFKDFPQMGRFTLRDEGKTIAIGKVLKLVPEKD
- PROTOCOL_NOTES: Molecular glue activity at CRBN/GSPT1 in human 22Rv1 cells assessed as induction of GSPT1 degradation at 0.01 uM incubated for 24 hrs by Western blot analysis relative to control
- Type: cell-based
Give just the number in %; leave the unit off.

Measured Activity, CC(C)(c1ccc(OCC2COC2)cc1)c1cc(Cl)c(OCC2CCN(C(=O)CCCCCNc3ccc4c(c3)C(=O)N(C3CCC(=O)NC3=O)C4=O)CC2)c(C#N)c1 (stereo not drawn) : 96.8

Measured Activity, CC(C)(c1ccc(OCc2ccccc2)cc1)c1cc(Cl)c(OCC2CCN(C(=O)CCCCCNc3ccc4c(c3)C(=O)N(C3CCC(=O)NC3=O)C4=O)CC2)c(C#N)c1 (stereo not drawn) : 81.5

Measured Activity, CC(C)(c1ccc(OCC2CCN(C(=O)CCCCCNc3ccc4c(c3)C(=O)N(C3CCC(=O)NC3=O)C4=O)CC2)cc1)c1ccc(OC[C@H](O)CCl)cc1 (stereo partly drawn) : 80.3

----------
Hi there, I'd appreciate the recorded Activity for every entry that follows.
- TARGET_OR_SYSTEM: Protein cereblon/Eukaryotic peptide chain release factor GTP-binding subunit ERF3A (Homo sapiens, UniProt Q96SW2+P15170)
- PROTOCOL_NOTES: Molecular glue activity at CRBN/GSPT1 in human 22Rv1 cells assessed as induction of GSPT1 degradation at 5 uM incubated for 24 hrs by Western blot analysis relative to control
- Assay type: cell-based
Give just the number in %; leave the unit off.

Measured Activity, CC(C)(c1ccc(OCC2CCN(C(=O)CCCCOc3ccc4c(c3)C(=O)N(C3CCC(=O)NC3=O)C4=O)CC2)cc1)c1ccc(OC[C@H](O)CCl)cc1 (stereo partly drawn) : 44.4

Measured Activity, CC(C)(c1ccc(OCC2CCN(C(=O)CCCCCCNc3ccc4c(c3)C(=O)N(C3CCC(=O)NC3=O)C4=O)CC2)cc1)c1ccc(OC[C@H](O)CCl)cc1 (stereo partly drawn) : 79.8

Measured Activity, CC(C)(c1ccc(OCC2CCN(C(=O)CCCCCCOc3ccc4c(c3)C(=O)N(C3CCC(=O)NC3=O)C4=O)CC2)cc1)c1ccc(OC[C@H](O)CCl)cc1 (stereo partly drawn) : 92.7

----------
- Tested on: Protein cereblon/Androgen receptor (Homo sapiens), P10275+Q96SW2 [UNDEFINED MUTATION]
- PROTOCOL_NOTES: PROTAC activity at CRBN/Androgen receptor splice variant 7 in human 22Rv1 cells assessed as induction of AR-V7 degradation at 0.01 uM incubated for 24 hrs by Western blot analysis relative to control
- Assay type: cell-based
MEASURE_NAME: Activity (%)
Give just the number in %; leave the unit off.

Measured Activity, COc1ccc(C(C)(C)c2cc(Cl)c(OCC3CCN(C(=O)CCCCCNc4ccc5c(c4)C(=O)N(C4CCC(=O)NC4=O)C5=O)CC3)c(Cl)c2)cc1 (stereo not drawn) : 11.5

Measured Activity, CC(C)(c1ccc(OCC2CCOC2)cc1)c1cc(Cl)c(OCC2CCN(C(=O)CCCCCNc3ccc4c(c3)C(=O)N(C3CCC(=O)NC3=O)C4=O)CC2)c(C#N)c1 (stereo not drawn) : 76.8

Measured Activity, CC(C)(c1ccc(OCC2CCN(S(C)(=O)=O)CC2)cc1)c1cc(Cl)c(OCC2CCN(C(=O)CCCCCNc3ccc4c(c3)C(=O)N(C3CCC(=O)NC3=O)C4=O)CC2)c(C#N)c1 (stereo not drawn) : 70.6

Measured Activity, CC(C)(c1ccc(OCC2CCOCC2)cc1)c1cc(Cl)c(OCC2CCN(C(=O)CCCCCNc3ccc4c(c3)C(=O)N(C3CCC(=O)NC3=O)C4=O)CC2)c(C#N)c1 (stereo not drawn) : 68.5

Measured Activity, CC(C)(c1ccc(OCC2CCN(C(=O)CCCCCNc3ccc4c(c3)C(=O)N(C3CCC(=O)NC3=O)C4=O)CC2)cc1)c1ccc(OC[C@H](O)CCl)cc1 (stereo partly drawn) : 32.8

Measured Activity, COc1ccc(C(C)(C)c2cc(Cl)c(OCC3CCN(C(=O)CCCCCNc4ccc(C(=O)N[C@H]5CCC(=O)NC5=O)c(F)c4)CC3)c(C#N)c2)cc1 : 14.5

Measured Activity, CC(C)(c1ccc(OCc2ccncn2)cc1)c1cc(Cl)c(OCC2CCN(C(=O)CCCCCNc3ccc4c(c3)C(=O)N(C3CCC(=O)NC3=O)C4=O)CC2)c(C#N)c1 (stereo not drawn) : 75.5
